B1: EPB41L3 (parent)
chain: FRFAPNHTKELEDKVIELHKSHRG

Variants of: B1
Assay: protein stability index of a GFP-peptide fusion (GPS, HEK-293T) (PSI 1-6); higher = more stable;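 also: lentivirally expressed fusions sorted by FACS into six bins by GFP to DsRed ratio, PSI derived from sequencing read proportions per bin multiplied by bin number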
Conditions: c terminus: a fixed tail appended
Rule: protein stability index under 2 gives n, otherwise y.

Field: example entries. Status: answers known.
variant.identifier: A4N
assigned.label: y
--
variant.identifier: F3C
assigned.label: y
--
variant.identifier: D13S
assigned.label: y
--
variant.identifier: R23S
assigned.label: n
--
variant.identifier: S21L
assigned.label: n
--
variant.identifier: T8W
assigned.label: n
--
variant.identifier: P5T
assigned.label: y
--
variant.identifier: H22R
assigned.label: n
--
variant.identifier: F3I
assigned.label: y

Threshold query (protein stability index >= 2) on "L18R"
y
